B1: Cytosolic beta-glucosidase, O61594 (parent)
chain: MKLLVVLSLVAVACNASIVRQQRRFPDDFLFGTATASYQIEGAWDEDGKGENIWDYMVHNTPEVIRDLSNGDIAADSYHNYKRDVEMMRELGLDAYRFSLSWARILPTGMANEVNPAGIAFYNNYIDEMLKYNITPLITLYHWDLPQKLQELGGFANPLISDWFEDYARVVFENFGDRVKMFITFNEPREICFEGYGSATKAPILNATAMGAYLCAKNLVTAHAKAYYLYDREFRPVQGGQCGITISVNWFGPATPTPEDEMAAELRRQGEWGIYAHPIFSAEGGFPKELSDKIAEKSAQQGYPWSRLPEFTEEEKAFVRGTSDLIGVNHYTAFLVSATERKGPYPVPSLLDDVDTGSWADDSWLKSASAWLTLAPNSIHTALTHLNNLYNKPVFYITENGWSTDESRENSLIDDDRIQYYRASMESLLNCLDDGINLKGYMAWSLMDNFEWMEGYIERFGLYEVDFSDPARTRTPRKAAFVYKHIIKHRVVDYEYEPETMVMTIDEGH

# Variants of: B1
# SETUP_CONDITIONS: Spodoptera frugiperda; pH 6; Thermal; CD; Potassium phosphate 10mM; transition: 2; structure 5CG0; whole UniProt chain shown
Assign Criterion met to entries whose ddG of mutation (higher = less stable) meets or exceeds 0.4 kcal/mol; assign Criterion not met to the rest.

Below are worked cases with known answers.
F334A = Criterion met
N249A = Criterion met
L100A = Criterion not met
A263F = Criterion met
Y390A = Criterion not met

Reported ddG of mutation (higher = less stable) at or above 0.4 kcal/mol? V336F
Criterion met

Reported ddG of mutation (higher = less stable) at or above 0.4 kcal/mol? M262F
Criterion not met

Reported ddG of mutation (higher = less stable) at or above 0.4 kcal/mol? E265A
Criterion not met

Reported ddG of mutation (higher = less stable) at or above 0.4 kcal/mol? Y420A
Criterion met

Reported ddG of mutation (higher = less stable) at or above 0.4 kcal/mol? L335A
Criterion met

Reported ddG of mutation (higher = less stable) at or above 0.4 kcal/mol? L350A
Criterion met
